- Tested On: T1, extracellular region of human PD-L1 protein (positions 19-238 of SEQ ID NO: 3) (human, UniProt Q9NZQ7 19-238)
- T1 construct: also called Human PD-L1-his; antigen PD-L1
- T1 sequence (Q9NZQ7 19-238): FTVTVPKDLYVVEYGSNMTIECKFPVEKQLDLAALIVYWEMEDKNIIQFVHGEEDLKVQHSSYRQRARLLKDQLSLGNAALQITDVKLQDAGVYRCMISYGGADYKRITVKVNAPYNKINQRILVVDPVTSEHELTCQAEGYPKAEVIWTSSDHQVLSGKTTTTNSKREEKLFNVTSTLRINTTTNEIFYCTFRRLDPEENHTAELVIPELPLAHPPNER
- Test Description: ForteBio Octet (BLI), antibody immobilized, PD-L1 ECD 6.25-200 nM; culture supernatant
I'd be grateful if you could share measured koff for these entries.
Report the value in s⁻¹ with no unit label.

Problem: Which koff is reported for this binder? murine antibody 6G5 (A12) (antibody, V domains shown, Mouse hybridoma antibody (subclone 6G5-2); Only variable domains printed; the printed VL is identical to that of 13C9; also called 6G5-2) VH: QVQLKQSGAELVRPGTSVKMSCKATEYTFTNNWIAWVKQRPGHGLEWIGDIHPGGGYTNYNEKFKGKATLTADTSSSTAYMQLSSLTSEDSAIYYCAGSKTRDYDSWFAYWGQGTLVTVSA VL: DIVITQSPAIMSASPGEKVTMTCSASSSVSKMNWYQQKSGTSPKRWIYDTSKLASGVPSRFSGSGSGTSYSLTISSMEAEDAATYYCQQWSSNPLTFGSGTKLELKR
Result: 7.94e-05

Problem: Repeat for the following binder: murine antibody 14A7 (A1) (antibody, V domains shown, Mouse hybridoma antibody (subclone 14A7-4), tested as culture supernatant or purified from it; Only the variable domains are printed; also called 14A7-4) VH: QVQLKQSGAELVRPGTSVKMSCKATEYTFTNNWIAWVKQRPGHGLEWVGDIHPGGGFTNYNEKFKVKATLTADTSSSTAYMQLRSLTSEDSAIYYCAGSKTRDYDAWFAYWGQGTLVTVSA VL: DIVMTQAPSSLAVSVGEKVTLNCKSSQSLLYTGNQKNYLAWYQQKPGQSPKLLIYWASTRESGVPDRFTGSGSGTDFTLTISNVKAEDLAVYFCQQYYTYRTFGGGTKLEIK
Result: 2.78e-05

Problem: Input murine antibody 8A2 (A8) (antibody, V domains shown, Mouse hybridoma antibody (subclone 8A2-2); Only variable domains printed; also called 8A2-2) VH: QVQLKQSGPGLVAPSQSLSITCTVSGFSLTGYGVNWVRQPPGKGLEWLGKIWGDGITDYNSALKSRLSISKDNSKSQVFLKMNSLQTDDTARYYCARDVMDYWGQGTSVTVSS VL: QIVLTQSPAIMSASPGEKVTMTCSASSSISYMHWYQQKPGTSPKRWIYDTSKLASGVPARFSGSESGTSYSLTISSMEAEDAATYYCHHRSPYPTFGAGTKLELK
Result: 0.00034

Problem: Next: murine antibody 22B10 (A6) (antibody, V domains shown, Mouse hybridoma antibody (subclone 22B10-1); Only variable domains printed; also called 22B10-1) VH: QVQLKQSGAELVKPGASVELSCTASGFNIEDTYLHWVNQRPEQGLEWIGRIDPANGNTYYDPKFQGKATITTDTSSNTAYLQLSRLTSEDTAVYYCARGLRLPGFPYWGQGTLVTVSA VL: DIQMTQTPSSLSASLGDRVTISCRASQDISNYLSWYQQKPDGTVKLLIYYTSILHSGVPSRFSGSGSGTDYSLAISNLDQEDIATYFCQQGNTLPWTFGGGTKLEIKR
Result: 4.43e-05

Problem: Check murine antibody 28B1 (A5), subclone 28B1-2 (antibody, V domains shown, Mouse hybridoma antibody; Only variable domains printed) VH: QVQLKQSGAELVKPGASVMLSCTASAFNIDDTYIHWVKQRPEQGLEWIGRIDPANGNTDYDPECQGKATITTDMSSNTAYLQLSSLTSEDTAVYFCARGLRLPGLVYWGRGTLVTVSA VL: DIQMTQTTSSLSASLGDRVTISCRASQDISNYLNWYQQKPDGTVKLLIYYTSILYSGVPSRFSGSGSGTDYSLTINTLEEEDIATYFCQQGNTLPWTFGGGTKLEIIR too.
Result: 6.26e-06
